Please provide measured pKd for the entries that follow.
EXPERIMENTAL_SYSTEM: Thermococcus sp. DNA polymerase R671E/K677E/K712E R671E,K677E,K712E (Thermococcus sp.)
METHOD_SUMMARY: EMSA
CONDITION_DETAILS: EMSA as for Taq, 1x TAE with 2 mM EDTA
Answers are plain numbers, as −log10 of the molar value.

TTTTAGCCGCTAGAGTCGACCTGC / GGAGACAAGCTTGTATGCCTGCAGGTCGACTCTAGCGGCTAAAA [24/44 nt template-primer duplex] | 6.72

// switching to the query sequence
Request: For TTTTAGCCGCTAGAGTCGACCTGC [24 nt primer] , what is its reported pKd?
Response: 6.13
